Attribution: patent US20150086555A1

# test-target: recombinant soluble homotrimeric HA of A/California/4/09 (H1N1) (Influenza A virus A/California/04/2009(H1N1))
# assay-method-text: trimeric HA microarray, transfection supernatant set 5
# details: remark: other sources report otherwise
endpoint: Trimeric HA Binding: RLU (RLU)
# output: bare number, implied unit RLU

Using the record for TCN-540 (5060_F05) (antibody, V domains shown) VH: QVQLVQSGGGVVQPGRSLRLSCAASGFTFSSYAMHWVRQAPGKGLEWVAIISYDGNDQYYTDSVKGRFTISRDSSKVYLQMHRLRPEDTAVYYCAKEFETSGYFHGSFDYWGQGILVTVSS VL: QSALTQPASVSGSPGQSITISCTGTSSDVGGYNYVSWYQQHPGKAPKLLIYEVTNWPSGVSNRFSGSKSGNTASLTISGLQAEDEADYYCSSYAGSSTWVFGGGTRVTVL , report its Trimeric HA Binding: RLU.
984
